The reported measurements were obtained from ChEMBL document CHEMBL1221216.

# SYSTEM_UNDER_TEST: NAD-dependent protein deacetylase sirtuin-2 (Homo sapiens)
# Sequence (Q8IXJ6 whole entry): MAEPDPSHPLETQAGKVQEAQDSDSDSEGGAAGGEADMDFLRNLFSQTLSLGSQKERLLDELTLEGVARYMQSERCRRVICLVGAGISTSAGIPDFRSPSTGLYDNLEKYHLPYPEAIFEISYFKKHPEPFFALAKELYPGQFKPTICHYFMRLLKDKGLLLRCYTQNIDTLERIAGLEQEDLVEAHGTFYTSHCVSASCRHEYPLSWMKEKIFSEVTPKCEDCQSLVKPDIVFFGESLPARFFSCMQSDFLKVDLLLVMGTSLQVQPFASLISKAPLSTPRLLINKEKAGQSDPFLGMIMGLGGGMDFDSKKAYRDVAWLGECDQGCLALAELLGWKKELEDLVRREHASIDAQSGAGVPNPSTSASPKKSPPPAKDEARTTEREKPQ
# RUN_DESCRIPTION: Activation of human SirT2 protein fluorescence polarization assay
REPORTED_PROPERTY: EC50
Give me the value, and tack the unit on after it.

[in] Query EC50 on NAD-dependent protein deacetylase sirtuin-2 (Homo sapiens) for "O=C(Nc1ccccc1-c1cn2c(CN3CCNCC3)csc2n1)c1cnc2ccccc2n1"
[out] 160 nM
